# System: Rhizomucor pusillus (AAS 300)
# method notes: Screening of fungi for enzyme activity with 4-methylumbelliferone-labelled substrates
# Type: cell-based
# particulars: vegetable juice medium, substrate 10 μM, 25° C., pH 5
metric: Enzyme activity: amount of released 4-methylumbelliferone during 5 hours of incubation

A selection of reference data follows.
1. Cc1cc(=O)oc2cc(O[C@H]3O[C@H](CO)[C@@H](O)[C@H](O)[C@H]3O)ccc12 [substrate 7, 4-methylumbelliferyl α-D-glucoside]; * (0.4 ≦ * < 1)
2. Cc1cc(=O)oc2cc(O[C@@H]3O[C@H](CO)[C@@H](O)[C@H](O)[C@@H]3O)ccc12 [substrate 6, 4-methylumbelliferyl β-D-mannopyranoside]; 0 µmol
3. Cc1cc(=O)oc2cc(O[C@@H]3O[C@H](C)[C@H](O)[C@H](O)[C@H]3O)ccc12 [substrate 11, 4-methylumbelliferyl β-D-fucoside]; 0 µmol
4. CC(=O)N[C@H]1[C@H](Oc2ccc3c(C)cc(=O)oc3c2)O[C@H](CO)[C@@H](O)[C@@H]1O [substrate 3]; *** (2 ≦ ***)
5. CC(=O)N[C@H]1[C@@H](Oc2ccc3c(C)cc(=O)oc3c2)O[C@H](CO)[C@@H](O)[C@@H]1O [substrate 2]; 0 µmol
6. Cc1cc(=O)oc2cc(O[C@@H]3OC[C@@H](O)[C@H](O)[C@H]3O)ccc12 [substrate 9, 4-methylumbelliferyl β-D-xyloside]; *** (2 ≦ ***)

Exercise: Would you kindly share the measured Enzyme activity: amount of released 4-methylumbelliferone during 5 hours of incubation for Cc1cc(=O)oc2cc(O[C@@H]3O[C@H](CO)[C@@H](O[C@@H]4O[C@H](CO)[C@H](O)[C@H](O)[C@H]4O)[C@H](O)[C@H]3O)ccc12 [substrate 8, 4-methylumbelliferyl β-D-lactoside] ?
Key: * (0.4 ≦ * < 1)

Exercise: Would you kindly share the measured Enzyme activity: amount of released 4-methylumbelliferone during 5 hours of incubation for Cc1cc(=O)oc2cc(O[C@H]3O[C@H](C)[C@H](O)[C@H](O)[C@H]3O)ccc12 [substrate 10, 4-methylumbelliferyl α-D-fucoside] ?
Key: *** (2 ≦ ***)

Ref: patent US6372446B1
